target: GlcNAc(b1-3)Gal; assay: glycan array binding signal (z-score within array); higher = stronger binding; conditions: glycan notation: IUPAC condensed, linker removed
Shown is part of a subset that was picked to be rich in the strongest signals.
parameter: glycan array binding signal (z-score)
Give the value as a plain number.

Some binders with known glycan array binding signal (z-score) results, for comparison:
- binder: "TbCVNHOa (Tuber borchii), Q5MK11 (protein) GSHIGPYMSYADSSRNAVLTNGGRTLRAECRNADGNWVTSELDLDTCIGNPNGFLGWGMQNFSHSSEDIKLEEGGRKLTCRPKTVDGGFRERQGIDLNRIQNVNGRLVFQ"
  glycan array binding signal (z-score): -0.283
- binder: "Clec12b (Mus musculus), Q149M0 (protein) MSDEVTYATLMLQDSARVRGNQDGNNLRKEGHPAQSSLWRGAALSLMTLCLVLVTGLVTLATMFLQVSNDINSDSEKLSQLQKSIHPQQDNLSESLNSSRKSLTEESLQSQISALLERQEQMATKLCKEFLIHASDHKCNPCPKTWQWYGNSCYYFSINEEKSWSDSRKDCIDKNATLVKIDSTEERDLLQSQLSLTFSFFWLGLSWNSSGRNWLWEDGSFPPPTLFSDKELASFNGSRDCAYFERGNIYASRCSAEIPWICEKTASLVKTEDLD"
  glycan array binding signal (z-score): -0.39

Consider now this further binder.
Report glycan array binding signal (z-score) for LSectin (Mus musculus), Q8BNX1 (protein) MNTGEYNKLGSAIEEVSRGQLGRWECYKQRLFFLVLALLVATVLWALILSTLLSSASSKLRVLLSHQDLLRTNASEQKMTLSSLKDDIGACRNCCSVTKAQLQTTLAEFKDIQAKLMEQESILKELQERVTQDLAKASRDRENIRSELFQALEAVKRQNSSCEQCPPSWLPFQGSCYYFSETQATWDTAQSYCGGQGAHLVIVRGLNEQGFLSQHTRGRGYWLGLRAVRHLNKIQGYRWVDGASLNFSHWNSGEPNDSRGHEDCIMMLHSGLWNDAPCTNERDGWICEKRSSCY please.
-0.164
